Values were extracted from patent US20240336909A1.

- ASSAY_TARGET: T1, cynomolgus EpCAM protein (cynomolgus monkey)
- T1 construct: biotinylated in the Octet assays; also called cy EpCAM; cynomolgus monkey EpCAM
- T1 sequence (Q1WER1 24-265): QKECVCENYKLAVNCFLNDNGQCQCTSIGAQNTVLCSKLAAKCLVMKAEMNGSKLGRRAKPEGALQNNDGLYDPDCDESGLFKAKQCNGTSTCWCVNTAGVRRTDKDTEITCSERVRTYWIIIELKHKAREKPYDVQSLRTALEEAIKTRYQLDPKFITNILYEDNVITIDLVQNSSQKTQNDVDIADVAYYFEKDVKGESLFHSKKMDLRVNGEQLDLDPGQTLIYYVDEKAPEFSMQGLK
- ASSAY_PROCEDURE: colorimetric ELISA
As shown below, each of these binders has a reported Cynomolgus EpCAM/Control value.
Entry rule: numbers only, all in ratio.

Llama anti-EpCAM single domain antibody EPL156 (VHH, E. coli periplasmic extract) VHH: QVQLQESGGGLVQPGASLRVSCAASEYILSMYRMAWYRQAPGKVRELVADMSSGGTTNYADFVKGRFTISRDNDRNTVYLQMNRLQPEDTAAYYCNVAGRTGPPSYDAFNNWGQGTQVTVSS; 17
Llama anti-EpCAM single domain antibody EPL109 (VHH, E. coli periplasmic extract) VHH: QVQLQESGGGLVQPGGSLRLSCASSGFTLDDYTIGWFRQAPGKEREGVSCISRRDDSTYYADSVKGRFTISRDNAKNTVDLQMISLRPEDTAVYYCAATPRSYTLRCLGKFDFQGQGTQVTVSS; 2
Llama anti-EpCAM single domain antibody EPL60 (VHH, E. coli periplasmic extract) VHH: QVQLQESGGGLVQAGGSLRLSCAASEYILSMYRMAWYRQAPGKVRELVADMSSGGTTNYADFVKGRFTISRDNDRNTVYLQMNRLQPEDTAAYYCNVAGRTGPPSYDAFNNWGQGTQVTVSS; 33
Llama anti-EpCAM single domain antibody EPL120 (VHH, E. coli periplasmic extract) VHH: QVQLQESGGGLVQAGGSLRLSCAASGFIFRAASISWYRQSPGNERELVATINSGGFTNYADSVLGRFTISRDNAKNTGYLQMNSLKPEDTAVYFCAATFLRSDGQPPIWGQGTQVTVSS; 4
Llama anti-EpCAM single domain antibody EPL55 (VHH, E. coli periplasmic extract) VHH: QVQLQESGGGLVQAGGSLRLSCAASGDTFLRYAMGWFRQAPGKEREFVAAITWNGGNTDYAGSLKGRFTISRDNTKNTVYLQMNSLKPEDTAVYYCAADLTFGLASSHYQYDYWGQGTQVTVSS; 7
Llama anti-EpCAM single domain antibody EPL49 (VHH, E. coli periplasmic extract) VHH: QVQLQESGGGLVQAGGSLRLSCAPSGRTSSIFGMGWFRQAPGKEREFVASINWSGGSTSYADSVKGRFTISRDNAKNEMYLQMNSLKFEDTAVYVCAAAVLTNKPSWNFWGQGTQVTVSS; 4
Llama anti-EpCAM single domain antibody EPL20 (VHH, E. coli periplasmic extract) VHH: QVQLQESGGGLVQAGGSLKLSCAASGNVFRAATMAWYRQAPEKQREMVATIASGGTTNYADFVKGRFTISRDNAKNTVYLQMNTLKPEDTAVYYCNAGYLTSLGPKNYWGQGTQVTVSS; 4
Llama anti-EpCAM single domain antibody EPL43 (VHH, E. coli periplasmic extract) VHH: QVQLQESGGGLVQTGGSLRLSCAASESISSFIAVGWYRQAPGKERELVAGINRSGFTYYTDSVKGRFSISRDNAKNTVLLQMTSLKPEDTAVYYCNAGGLYFSNAYTQGDYWGQGTQVTVSS; 27
Llama anti-EpCAM single domain antibody EPL117 (VHH, E. coli periplasmic extract) VHH: QVQLQESGGGLVQAGGSLRLSCAASGNIVRMTNMAWYRQAPGKQREFVATISAGGSTTYVDSVKDRFTISRDNTKNTVYLQMNYLKPEDTAVYYCATGSILTNRGAIPGSWGHGTQVTVSS; 3
Llama anti-EpCAM single domain antibody EPL136 (VHH, E. coli periplasmic extract) VHH: QVQLQESGGGLVQPGGSLRLSCAASGDTFLRYAMGWFRQAPGKEREFVAAITWNGGNTDYAGSLKGRFTISRDNTKNTVYLQMNSLKPEDTAVYYCAADLTFGLASSHYQYDYWGQGTQVTVSS; 13

Please give the measured Cynomolgus EpCAM/Control for this binder: Llama anti-EpCAM single domain antibody EPL34 (VHH, E. coli periplasmic extract) VHH: QVQLQESGGGSVQAGGSLRLSCAASGFTFSSYYMSWVRQAPGKGLEWVSGIHYTGDWTNYADSVKGRFTISRDNAKNELYLEMNNLKPEDTAVYYCARGSDKGQGTQVTVSS
36

Please give the measured Cynomolgus EpCAM/Control for this binder: Llama anti-EpCAM single domain antibody EPL125 (VHH, E. coli periplasmic extract) VHH: QVQLQESGGGLVQAGGSLRLSCAASGNVFRAATMAWYRQVPEKQREMVATIASGGTTNYADFVKGRFTISRDNAKNTVYLQMNTLKPEDTAVYYCNALYLTSLGPKSYWGQGTQVTVSS
8

Please give the measured Cynomolgus EpCAM/Control for this binder: Llama anti-EpCAM single domain antibody EPL90 (VHH, E. coli periplasmic extract) VHH: QVQLQESGGGLVQAGGSLRLSCAASGFIFRAASMAWYRQSPGNERELVASISSGAFTNYADSVKARFTISRDNAKNTVYLQMNSLKPEDTAVYFCGATFLRSDGHHTINGQGTQVTVSS
10

Please give the measured Cynomolgus EpCAM/Control for this binder: Llama anti-EpCAM single domain antibody EPL153 (VHH, E. coli periplasmic extract) VHH: QVQLQESGGGLVQPGGSLRLSCAASGFTFSDWAMSWVRQAPGKGLEWVSSIHYGDHTTHYADFVKGRFTISRDDAKNTLYLQMNSLKPEDTAVYYCEKGTTRGQGTQVTVSS
21

Please give the measured Cynomolgus EpCAM/Control for this binder: Llama anti-EpCAM single domain antibody EPL159 (VHH, E. coli periplasmic extract) VHH: QVQLQESGGGLVQAGGSLRLSCAASGFAFGNHWMYWYRQAPGRGRELVASISSGGSTNYVDSVKGRFTISRDNARNTVYLQMYSLKPEDTAVYYCGTSDNWGQGTQVTVSS
2
